# systemTested: T1, Cynomolgus monkey BCMA (cynomolgus monkey)
# T1 construct: Soluble analyte in SPR; also called cyBCMA; Cyno BCMA
# testMethodNotes: SPR, IgG immobilised, cyno BCMA analyte
Field: kon. Provide a value for each of the binders that follow.
Give bare numbers, in M⁻¹ s⁻¹.

# batch size: 5; output kon per entry
1. COMBO_Rd4_6nM_C08 (antibody, V domains shown, IgG) VH: EVQLLESGGGLVQPGGSLRLSCAASGFTFSSYPMSWVRQAPGKGLEWVSAIGGSGTWTYYADSVKGRFTISRDNSKNTLYLQMNSLRAEDTAVYYCARYWPMDSWGQGTLVTVSS VL: EIVLTQSPGTLSLSPGERATLSCRASQSVSSSYLAWYQQKPGQAPRLLMYDASIRATGIPDRFSGSGSGTDFTLTISRLEPEDFAVYYCQQYQKWPLTFGQGTKVEIK
2. COMBO_Rd4_0.6nM_C29 (antibody, V domains shown, IgG) VH: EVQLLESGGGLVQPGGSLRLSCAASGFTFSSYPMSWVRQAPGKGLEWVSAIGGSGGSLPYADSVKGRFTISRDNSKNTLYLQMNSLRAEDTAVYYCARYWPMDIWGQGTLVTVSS VL: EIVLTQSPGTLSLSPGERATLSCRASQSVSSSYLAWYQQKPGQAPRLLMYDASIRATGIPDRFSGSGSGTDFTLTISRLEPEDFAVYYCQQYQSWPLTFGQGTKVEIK
3. A02_Rd4_6nM_C04 (antibody, V domains shown, IgG) VH: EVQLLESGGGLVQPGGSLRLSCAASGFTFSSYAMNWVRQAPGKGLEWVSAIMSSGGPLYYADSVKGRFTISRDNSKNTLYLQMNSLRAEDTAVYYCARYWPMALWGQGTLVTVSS VL: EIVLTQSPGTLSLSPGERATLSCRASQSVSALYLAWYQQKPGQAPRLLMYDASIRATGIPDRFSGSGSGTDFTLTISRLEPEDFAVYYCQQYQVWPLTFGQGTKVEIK
4. COMBO_Rd4_6nM_C10 (antibody, V domains shown, IgG) VH: EVQLLESGGGLVQPGGSLRLSCAASGFTFSSYPMSWVRQAPGKGLEWVSAIGGSGGSIHYADSVKGRFTISRDNSKNTLYLQMNSLRAEDTAVYYCARYWPMDSWGQGTLVTVSS VL: EIVLTQSPGTLSLSPGERATLSCRASQSVSSSYWGWYQQKPGQAPRLLMYDASIRATGIPDRFSGSGSGTDFTLTISRLEPEDFAVYYCQQYQCWPLTFGQGTKVEIK
5. P5A2_VHVL (antibody, V domains shown, IgG) VH: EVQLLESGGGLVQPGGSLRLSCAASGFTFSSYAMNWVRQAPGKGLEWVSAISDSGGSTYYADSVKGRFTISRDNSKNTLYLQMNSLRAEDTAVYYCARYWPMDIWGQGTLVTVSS VL: EIVLTQSPGTLSLSPGERATLSCRASQSVSSSYLAWYQQKPGQAPRLLMYDASIRATGIPDRFSGSGSGTDFTLTISRLEPEDFAVYYCQQYGSWPLTFGQGTKVEIK

Result block:
["3.06e+06", "4e+06", "2.18e+06", "1.52e+06", "1.61e+06"]

meta.source: patent US20160297884A1
